Values from patent US10301320B2

target: recombinant 15-PGDH protein (Homo sapiens (Human), UniProt P15428); assay: Inhibition of enzymatic activity of recombinant 15-PGDH in vitro; assay type: biochemical; details: read-out: Enzyme inhibition % ([…]), Table 18; […] compound; read-out: Enzyme inhibition % (2.5 μM)
Sequence (P15428 whole entry): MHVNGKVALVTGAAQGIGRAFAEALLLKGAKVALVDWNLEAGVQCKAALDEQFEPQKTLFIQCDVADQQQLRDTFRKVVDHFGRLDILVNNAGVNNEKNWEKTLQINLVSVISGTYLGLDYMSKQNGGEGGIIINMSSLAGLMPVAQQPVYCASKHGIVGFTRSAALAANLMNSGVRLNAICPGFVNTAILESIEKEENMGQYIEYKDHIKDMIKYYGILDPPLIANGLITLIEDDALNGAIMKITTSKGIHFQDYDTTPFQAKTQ
QUANTITY_MEASURED: inhibition at […] (%)

Guide cases for inhibition at […], answers given:
SMILES_REPRESENTATION	TESTED_SYSTEM	TEST_RESULT
COc1ccc(N(CC(=O)Nc2cccnc2)S(=O)(=O)c2ccccc2)cc1C	recombinant 15-PGDH protein (Homo sapiens (Human), UniProt P15428)	6.23
COc1cccc(N(CC(=O)Nc2cccnc2)S(=O)(=O)c2ccccc2)c1	recombinant 15-PGDH protein (Homo sapiens (Human), UniProt P15428)	11
COc1ccc(OC)c(N(CC(=O)Nc2cccnc2)S(C)(=O)=O)c1	recombinant 15-PGDH protein (Homo sapiens (Human), UniProt P15428)	-20.6
COc1ccc(OC)c(N(CC(=O)Nc2ccc(Cl)cc2)S(=O)(=O)c2ccccc2)c1	recombinant 15-PGDH protein (Homo sapiens (Human), UniProt P15428)	35.5

P = COC(=O)c1ccccc1NC(=O)CN(c1cc(OC)ccc1OC)S(=O)(=O)c1ccccc1
Q = CCOc1ccc(N(CC(=O)Nc2cccnc2)S(=O)(=O)c2ccccc2)cc1
INPUT: Compare P and Q and name the one whose reported inhibition at […] is smaller. # reply format: chosen label
OUTPUT: Q
(Q: 3.76%, P: 9.72%)

----------
target: recombinant 15-PGDH protein (Homo sapiens (Human), UniProt P15428); assay: Inhibition of enzymatic activity of recombinant 15-PGDH in vitro; type: biochemical; settings: read-out: Enzyme inhibition % ([…]), recombinant 15-PGDH, […] compound; read-out: Enzyme inhibition % (2.5 μM)
QUANTITY_MEASURED: inhibition at […] (%)

Guide cases for inhibition at […], answers given:
SMILES_REPRESENTATION	TESTED_SYSTEM	inhibition at […] / %
COc1ccc(OC)c(NCC(=O)Nc2cccnc2)c1	recombinant 15-PGDH protein (Homo sapiens (Human), UniProt P15428)	28.3
COc1ccc(OC)c(N(CC(=O)Nc2cccnc2)S(=O)(=O)c2ccc(C(C)=O)cc2)c1	recombinant 15-PGDH protein (Homo sapiens (Human), UniProt P15428)	46.3
COc1ccc(OC)c(N(CC(=O)Nc2ccccc2)S(=O)(=O)c2ccccc2)c1	recombinant 15-PGDH protein (Homo sapiens (Human), UniProt P15428)	15.1
COc1ccc(OC)c(N(CC(=O)Nc2cncc(Cl)c2)S(=O)(=O)c2ccccc2)c1	recombinant 15-PGDH protein (Homo sapiens (Human), UniProt P15428)	22.9
COc1ccc(OC)c(N(CC(=O)N2CCCC2)S(=O)(=O)c2ccccc2)c1	recombinant 15-PGDH protein (Homo sapiens (Human), UniProt P15428)	21.8

P = CNC(=O)CN(c1cc(OC)ccc1OC)S(=O)(=O)c1ccccc1
Q = COc1ccc(OC)c(N(CC(=O)Nc2ccnc(C)c2)S(=O)(=O)c2ccccc2)c1
INPUT: Compare P and Q and name the one whose reported inhibition at […] is smaller. # reply format: chosen label
OUTPUT: P
(P: 15.7%, Q: 44.7%)

1 = COc1ccc(OC)c(N(CC(=O)Nc2cccnc2)S(=O)(=O)c2ccc(F)cc2)c1
2 = COc1ccc(OC)c(N(CC(=O)Nc2ccncc2F)S(=O)(=O)c2ccccc2)c1
INPUT: Endpoint returns the identifier whose inhibition at […] is numerically larger, either 1 or 2 . # reply format: chosen label
OUTPUT: 2

----------
test system: V9m reporter cell line expressing a 15-PGDH luciferase fusion construct; assay: 15-PGDH-luciferase fusion gene reporter induction, V9m cell line; assay type: cell-based; conditions: read-out: V9M reporter activity ([…]), Table 17; […]; % induction over basal level; read-out: V9M reporter activity (2.5 μM)
Entries annotated with measured activation at […]
Write down the numeric answer in % and omit the unit.

COMPOUND	UNIT_ABBREV	activation at […]
COc1ccc(S(=O)(=O)N(CC(=O)Nc2cccc(Br)c2)c2cc(Cl)ccc2OC)cc1OC [compound 771130]	%	8.67
COc1ccc(S(=O)(=O)N(CC(=O)Nc2cccc(N(C)S(C)(=O)=O)c2)c2cc(Cl)ccc2OC)cc1OC [compound 924787]	%	-1.45
COc1ccc(S(=O)(=O)N(CC(=O)Nc2ccc(Br)cc2)c2cc(Cl)ccc2OC)cc1OC [compound 771432]	%	-7.11
COc1ccc(N(CC(=O)Nc2ccccc2Br)S(=O)(=O)c2ccc(NC(C)=O)cc2)cc1 [compound 771064]	%	43.3
COc1ccc(S(=O)(=O)N(CC(=O)Nc2ccccc2Br)c2cc(Cl)ccc2OC)cc1OC [compound 771081]	%	-14.2

Now for another entry.
INPUT: Form field: reported activation at […] of COc1ccc(N(CC(=O)Nc2ccccc2Br)S(=O)(=O)c2ccccc2[N+](=O)[O-])c(OC)c1 [compound 1002065]
OUTPUT: 7.38

----------
target: recombinant 15-PGDH protein (Homo sapiens (Human)); assay: Inhibition of enzymatic activity of recombinant 15-PGDH in vitro; format: biochemical; conditions: read-out: Enzyme inhibition % ([…]), Table 18; […] compound; read-out: Enzyme inhibition % (7.5 μM)
QUANTITY_MEASURED: inhibition at […] (%)

Guide cases for inhibition at […], answers given:
SMILES_REPRESENTATION	UNIT_ABBREV	inhibition at […]
COc1ccc(OC)c(N(CC(=O)Nc2ccccc2C(N)=O)S(=O)(=O)c2ccccc2)c1	%	9.25
COc1ccc(C)cc1N(CC(=O)Nc1cccnc1)S(=O)(=O)c1ccccc1	%	70.2
COc1ccc(OC)c(N(CC(=O)Nc2ccc(Cl)c(Cl)c2)S(=O)(=O)c2ccccc2)c1	%	22
COc1ccc(OC)c(N(CC(=O)Nc2cccc(Cl)c2)S(=O)(=O)c2ccccc2)c1	%	34.7
CCc1ccccc1N(CC(=O)Nc1cccnc1)S(=O)(=O)c1ccccc1	%	10.2

P = COc1ccc(OC)c(N(CC(=O)NC2CCCCC2)S(=O)(=O)c2ccccc2)c1
Q = COc1ccc(OC)c(N(CC(=O)Nc2cccnc2)S(=O)(=O)c2ccc(C)cc2)c1
INPUT: Endpoint returns the identifier whose inhibition at […] is numerically larger, either P or Q . # reply format: chosen label
OUTPUT: Q
(Q: 84.6%, P: 5.85%)

I = O=C(CN(c1ccccc1)S(=O)(=O)c1ccccc1)Nc1cccnc1
II = COc1ccc(OC)c(N(CC(=O)Nc2cccnc2)S(=O)(=O)c2ccc(OC)c(OC)c2)c1
INPUT: Compare I and II and name the one whose reported inhibition at […] is smaller. # reply format: chosen label
OUTPUT: I

----------
Tested on: Vaco503 reporter cell line expressing a 15-PGDH luciferase fusion construct
Assay: 15-PGDH-luciferase fusion gene reporter induction, Vaco503 (V503) cell line
Assay type: cell-based
Settings: read-out: V503 reporter activity ([…]), Table 17; […]; read-out: V503 reporter activity (7.5 μM)
Text: These cell lines are Vaco-9m (V9m), LS174T, Vaco503 (V503). […] Value of 1.0 on the Y-axis is the basal level of reporter activity in cells treated with drug free DMSO vehicle. This Example provides data on a group of structural analogues of SW033291. […]
Entries annotated with measured activation at […]
Write down the numeric answer in % and omit the unit.

SMILES_REPRESENTATION	TESTED_SYSTEM	TEST_RESULT
COc1ccc(N(CC(=O)Nc2ccccc2Br)S(=O)(=O)c2ccc(NC(C)=O)cc2)cc1	Vaco503 reporter cell line expressing a 15-PGDH luciferase fusion construct	-24.8
COc1ccc(N(CC(=O)Nc2ccccc2Br)S(=O)(=O)c2ccccc2[N+](=O)[O-])c(OC)c1	Vaco503 reporter cell line expressing a 15-PGDH luciferase fusion construct	52.5
COc1ccc(S(=O)(=O)N(CC(=O)Nc2ccccc2Br)c2cc(Cl)ccc2OC)cc1OC	Vaco503 reporter cell line expressing a 15-PGDH luciferase fusion construct	51.7
COc1ccc(S(=O)(=O)N(CC(=O)Nc2cccc(Br)c2)c2cc(Cl)ccc2OC)cc1OC	Vaco503 reporter cell line expressing a 15-PGDH luciferase fusion construct	-3.48

INPUT: Form field: reported activation at […] of COc1ccc(S(=O)(=O)N(CC(=O)Nc2cccc(N(C)S(C)(=O)=O)c2)c2cc(Cl)ccc2OC)cc1OC
OUTPUT: 48

INPUT: Consider next the compound COc1ccc(S(=O)(=O)N(CC(=O)Nc2ccc(Br)cc2)c2cc(Cl)ccc2OC)cc1OC in the same way.
OUTPUT: 42.8

----------
target: recombinant 15-PGDH protein (Homo sapiens (Human), UniProt P15428); assay: Inhibition of enzymatic activity of recombinant 15-PGDH in vitro; assay type: biochemical; conditions: read-out: Enzyme inhibition % ([…]), recombinant 15-PGDH, […] compound; read-out: Enzyme inhibition % (2.5 μM);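 also: activity of recombinant human 15-PGDH assayed in vitro using PGE2 as the substrate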
QUANTITY_MEASURED: inhibition at […] (%)

Guide cases for inhibition at […], answers given:
SMILES_REPRESENTATION	TEST_RESULT
COc1ccc(S(=O)(=O)N(CC(=O)Nc2cccnc2)c2cc(OC)ccc2OC)cc1	24.3
COc1ccc(OC)c(N(CC(=O)Nc2ccccc2Cl)S(=O)(=O)c2ccccc2)c1	4.61

I = COc1ccc(OC)c(N(CC(=O)Nc2cccnc2)S(=O)(=O)c2ccccc2F)c1
II = COc1ccc(OC)c(N(CC(=O)Nc2cccnc2)S(=O)(=O)c2ccccc2Cl)c1
INPUT: Endpoint returns the identifier whose inhibition at […] is numerically larger, either I or II . # reply format: chosen label
OUTPUT: I

A = COc1ccc(OC)c(N(CC(=O)Nc2ccnnc2)S(=O)(=O)c2ccccc2)c1
B = COc1ccc(OC)c(N(CC(=O)Nc2cccnc2)S(=O)(=O)c2ccccc2C)c1
C = COc1ccc(OC)c(N(CC(=O)OC2CCCCC2)S(=O)(=O)c2ccccc2)c1
INPUT: Put the entries in order of inhibition at […], starting with the largest number. Give your ranking as a list of the labels in the requested order.
OUTPUT: A, C, B
